ASSAY TARGET: Aβ1-40 (Homo sapiens)
Construct: (β-AP1-40) was obtained commercially from Bachem (Torrance, Calif.); purchased Bachem (Torrance, Calif.)
Sequence (P05067 672-711): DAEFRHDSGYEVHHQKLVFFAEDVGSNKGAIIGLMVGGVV
ASSAY PROCEDURE: Nucleation assay (turbidity, A405 nm)
Assay type: biochemical
CONDITIONS: Table II; 100 mole % vs 50 μM Aβ1-40
Numbered stars: 1 amine (or outer) side, 2 acyl side, 3 side chain; on linkers, the order of the positions; unused ones are H or OH. Square brackets hold non-standard residues; d marks the D form. Peptide text beside a SMILES is read from it. * marks the point of attachment. Cholyl = C[C@H](CCC(=O)*)[C@H]1CC[C@H]2[C@@H]3[C@H](O)C[C@@H]4C[C@H](O)CC[C@]4(C)[C@H]3C[C@H](O)[C@]12C; X2 = O=C(C1(O)C[C@H](O)[C@@H](N[*:1])[C@H]([C@H](O)[C@H](O)CO)O1)[*:2]; X3 = N=C1N[C@H]2[C@H](CS[C@H]2CCCCC(=O)*)N1
Entries and their Fold Increase in Lag Time values follow.

{"MOLECULE": "CC(C)C[C@H](NC(=O)[C@H](CCCCN)NC(=O)[C@H](CCC(N)=O)NC(=O)[C@H](Cc1c[nH]cn1)NC(=O)[C@H](Cc1c[nH]cn1)NC(=O)[C@@H](NC(=O)[C@H](CCC(=O)O)NC(=O)[C@H](Cc1ccc(O)cc1)NC(=O)CNC(=O)[C@H](CO)NC(=O)[C@H](CC(=O)O)NC(=O)[C@H](Cc1c[nH]cn1)NC(=O)CCCC[C@@H]1SC[C@@H]2NC(=N)N[C@@H]21)C(C)C)C(=O)N[C@H](C(=O)N[C@@H](Cc1ccccc1)C(=O)N[C@@H](Cc1ccccc1)C(=O)O)C(C)C [PPI-267, iminobiotinyl-Aβ6-20] (X3-HDSGYEVHHQKLVFF-OH)", "QUANTITY KIND": "Fold Increase in Lag Time", "READING": "1.6 fold"}
{"MOLECULE": "CC[C@H](C)[C@H](NC(=O)[C@H](C)NC(=O)CNC(=O)[C@H](CCCCN)NC(=O)[C@H](CC(N)=O)NC(=O)[C@H](CO)NC(=O)CCCC[C@@H]1SC[C@@H]2NC(=N)N[C@@H]21)C(=O)N[C@H](C(=O)NCC(=O)N[C@@H](CC(C)C)C(=O)N[C@@H](CCSC)C(=O)N[C@H](C(=O)NCC(=O)NCC(=O)N[C@H](C(=O)N[C@H](C(=O)O)C(C)C)C(C)C)C(C)C)[C@@H](C)CC [PPI-287] (X3-SNKGAIIGLMVGGVV-OH)", "QUANTITY KIND": "Fold Increase in Lag Time", "READING": "2.3 fold"}
{"MOLECULE": "CC(C)C[C@H](NC(=O)[C@H](CCCCN)NC(=O)CC[C@@H](C)[C@H]1CC[C@H]2[C@@H]3[C@H](O)C[C@@H]4C[C@H](O)CC[C@]4(C)[C@H]3C[C@H](O)[C@]12C)C(=O)N[C@H](C(=O)N[C@@H](Cc1ccccc1)C(=O)N[C@@H](Cc1ccccc1)C(=O)N[C@@H](C)C(=O)N[C@@H](CCC(=O)O)C(=O)N[C@@H](CC(=O)O)C(=O)N[C@H](C(=O)NCC(=O)N[C@@H](CO)C(=O)N[C@@H](CC(N)=O)C(=O)N[C@@H](CCCCN)C(=O)NCC(=O)N[C@@H](C)C(=O)O)C(C)C)C(C)C [PPI-274] (Cholyl-KLVFFAEDVGSNKGA-OH)", "QUANTITY KIND": "Fold Increase in Lag Time", "READING": ">4.5 fold"}
{"MOLECULE": "CC[C@H](C)[C@H](NC(=O)[C@H](C)NC(=O)CNC(=O)[C@H](CCCCN)NC(=O)[C@H](CC(N)=O)NC(=O)[C@H](CO)NC(=O)CNC(=O)[C@@H](NC(=O)[C@H](CC(=O)O)NC(=O)[C@H](CCC(=O)O)NC(=O)[C@H](C)NC(=O)C1(O)C[C@H](O)[C@@H](NC(C)=O)[C@H]([C@H](O)[C@H](O)CO)O1)C(C)C)C(=O)N[C@H](C(=O)NCC(=O)N[C@@H](CC(C)C)C(=O)N[C@@H](CCSC)C(=O)O)[C@@H](C)CC (some centres unmarked) [PPI-281] (Ac-[X2]AEDVGSNKGAIIGLM-OH)", "QUANTITY KIND": "Fold Increase in Lag Time", "READING": "~1 fold"}
{"MOLECULE": "CC(=O)N[C@H]1[C@H]([C@H](O)[C@H](O)CO)OC(O)(C(=O)N[C@@H](CCCCN)C(=O)N[C@@H](CC(C)C)C(=O)N[C@H](C(=O)N[C@@H](Cc2ccccc2)C(=O)N[C@@H](Cc2ccccc2)C(=O)N[C@@H](C)C(=O)N[C@@H](CCC(=O)O)C(=O)N[C@@H](CC(=O)O)C(=O)N[C@H](C(=O)NCC(=O)N[C@@H](CO)C(=O)N[C@@H](CC(N)=O)C(=O)N[C@@H](CCCCN)C(=O)NCC(=O)N[C@@H](C)C(=O)O)C(C)C)C(C)C)C[C@@H]1O (some centres unmarked) [PPI-276] (Ac-[X2]KLVFFAEDVGSNKGA-OH)", "QUANTITY KIND": "Fold Increase in Lag Time", "READING": "~1 fold"}
{"MOLECULE": "CC[C@H](C)[C@H](NC(=O)[C@H](C)NC(=O)CNC(=O)[C@H](CCCCN)NC(=O)[C@H](CC(N)=O)NC(=O)[C@H](CO)NC(=O)CNC(=O)[C@@H](NC(=O)[C@H](CC(=O)O)NC(=O)[C@H](CCC(=O)O)NC(=O)[C@H](C)NC(=O)CCCC[C@@H]1SC[C@@H]2NC(=N)N[C@@H]21)C(C)C)C(=O)N[C@H](C(=O)NCC(=O)N[C@@H](CC(C)C)C(=O)N[C@@H](CCSC)C(=O)O)[C@@H](C)CC [PPI-282] (X3-AEDVGSNKGAIIGLM-OH)", "QUANTITY KIND": "Fold Increase in Lag Time", "READING": "~1 fold"}
{"MOLECULE": "CC[C@H](C)[C@H](NC(=O)[C@H](C)NC(=O)CNC(=O)[C@H](CCCCN)NC(=O)[C@H](CC(N)=O)NC(=O)[C@H](CO)NC(=O)C1(O)C[C@H](O)[C@@H](NC(C)=O)[C@H]([C@H](O)[C@H](O)CO)O1)C(=O)N[C@H](C(=O)NCC(=O)N[C@@H](CC(C)C)C(=O)N[C@@H](CCSC)C(=O)N[C@H](C(=O)NCC(=O)NCC(=O)N[C@H](C(=O)N[C@H](C(=O)O)C(C)C)C(C)C)C(C)C)[C@@H](C)CC (some centres unmarked) [PPI-286] (Ac-[X2]SNKGAIIGLMVGGVV-OH)", "QUANTITY KIND": "Fold Increase in Lag Time", "READING": "1.3 fold"}

Now for the molecule whose Fold Increase in Lag Time we want.
Consider the molecule CC(C)C[C@H](NC(=O)[C@H](CCCCN)NC(=O)CCCC[C@@H]1SC[C@@H]2NC(=N)N[C@@H]21)C(=O)N[C@H](C(=O)N[C@@H](Cc1ccccc1)C(=O)N[C@@H](Cc1ccccc1)C(=O)N[C@@H](C)C(=O)N[C@@H](CCC(=O)O)C(=O)N[C@@H](CC(=O)O)C(=O)N[C@H](C(=O)NCC(=O)N[C@@H](CO)C(=O)N[C@@H](CC(N)=O)C(=O)N[C@@H](CCCCN)C(=O)NCC(=O)N[C@@H](C)C(=O)O)C(C)C)C(C)C [PPI-277] (X3-KLVFFAEDVGSNKGA-OH) and give its measured Fold Increase in Lag Time. 1.2 fold

* * *

ASSAY TARGET: Aβ1-40 (Homo sapiens)
Construct: (β-AP1-40) was obtained commercially from Bachem (Torrance, Calif.); purchased Bachem (Torrance, Calif.)
ASSAY PROCEDURE: Nucleation assay (turbidity, A405 nm);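 further: synthetic Aβ monomer polymerization followed by turbidity in 96-well plates with continuous shaking, read every 15 minutes over 5 hours, compared against wells lacking test compound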
Format: biochemical
CONDITIONS: Table IV; 100 mole %
Peptide text beside a SMILES is read from it. * marks the point of attachment. Cholyl = C[C@H](CCC(=O)*)[C@H]1CC[C@H]2[C@@H]3[C@H](O)C[C@@H]4C[C@H](O)CC[C@]4(C)[C@H]3C[C@H](O)[C@]12C
QUANTITY KIND: Fold Increase in Lag Time

# get_value(readout= Fold Increase in Lag Time, system= Aβ1-40 (Homo sapiens)) for CC(C)C[C@H](NC(=O)[C@H](CCCCN)NC(=O)CC[C@@H](C)[C@H]1CC[C@H]2[C@@H]3[C@H](O)C[C@@H]4C[C@H](O)CC[C@]4(C)[C@H]3C[C@H](O)[C@]12C)C(=O)N[C@H](C(=O)N[C@@H](C)C(=O)N[C@@H](Cc1ccccc1)C(=O)O)C(C)C [PPI-370, cholyl-Aβ16-20 Phe19->Ala] (Cholyl-KLVAF-OH) 2.6 fold

The measured values listed here are drawn from patent US20110009343A1.
